System: Tryptase, from human lung
Assay: Enzymatic assay, tryptase
Settings: at 100 μM
Where a SMILES comes first, the peptide text is derived from it.
Parameter Measured: Tryptase at 100 μM % (%)
Numbers only here, please. The scale is %.

Challenge: Request body: readout Tryptase at 100 μM %, system Tryptase, from human lung, query CC[C@H](C)[C@@H]1NC(=O)[C@@H]2CCCN2C(=O)[C@@H]2CCCN2C(=O)[C@H](CC(=O)O)NC(=O)[C@H](CO)NC(=O)[C@H](CCCCN)NC(=O)[C@H]([C@@H](C)O)NC(=O)[C@@H]2CSSC[C@H](NC1=O)C(=O)N[C@@H]([C@@H](C)O)C(=O)N1CCC[C@@H]1C(=O)N1CCC[C@H]1C(=O)N[C@@H](CCc1ccccc1)C(=O)N2 [Ex. 28] (HELM PEPTIDE1{[O=C([C@H](CCc1ccccc1)N[*:1])[*:2]].C.T.K.S.D.P.P.I.C.T.[dP].P}$PEPTIDE1,PEPTIDE1,2:R3-10:R3|PEPTIDE1,PEPTIDE1,1:R1-13:R2$$$V2.0) . Return the value.
Response given: 0

---

Molecular target: Coagulation Factor Xa, from uman plasma (Homo sapiens)
Sequence (P00742 235-488 limits assumed): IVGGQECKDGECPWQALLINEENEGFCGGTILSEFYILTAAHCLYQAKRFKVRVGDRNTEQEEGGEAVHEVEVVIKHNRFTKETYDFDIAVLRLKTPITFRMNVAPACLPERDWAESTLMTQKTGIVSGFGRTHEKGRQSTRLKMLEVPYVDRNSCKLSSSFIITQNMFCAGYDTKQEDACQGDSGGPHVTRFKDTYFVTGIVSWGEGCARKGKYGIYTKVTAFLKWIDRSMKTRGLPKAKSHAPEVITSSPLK
Sequence (P00742 41-179 limits assumed): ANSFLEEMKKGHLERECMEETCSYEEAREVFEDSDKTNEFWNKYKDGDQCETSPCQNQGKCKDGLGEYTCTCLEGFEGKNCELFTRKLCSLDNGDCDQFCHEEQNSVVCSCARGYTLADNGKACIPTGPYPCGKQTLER
Assay: Enzymatic assay, coagulation factor Xa
Where a SMILES comes first, the peptide text is derived from it.
Parameter Measured: FXa at 100 μM % (%)
Note: unit % is implicit; provide only the numeric part.

Challenge: Fill in the recorded FXa at 100 μM % for this compound, with Coagulation Factor Xa, from uman plasma (Homo sapiens) as test system: CCCC[C@@H]1NC(=O)[C@H](CCC(N)=O)NC(=O)[C@H]2CCCN2C(=O)[C@H](Cc2ccc(O)cc2)NC(=O)[C@@H]2CSSC[C@H](NC1=O)C(=O)N[C@@H]([C@@H](C)O)C(=O)N[C@@H](C)C(=O)N[C@@H](CO)C(=O)N[C@@H]([C@@H](C)CC)C(=O)N1CCC[C@H]1C(=O)N1CCC[C@H]1C(=O)N[C@@H](CCC(N)=O)C(=O)N2 [Ex. 123] (HELM PEPTIDE1{[Nle].C.T.A.S.I.P.P.Q.C.Y.[dP].Q}$PEPTIDE1,PEPTIDE1,2:R3-10:R3|PEPTIDE1,PEPTIDE1,1:R1-13:R2$$$V2.0)
Response given: 0

---

Target: Thrombin, from Human Plasma (Homo sapiens, UniProt P00734)
Assay: Enzymatic assay, thrombin
Where a SMILES comes first, the peptide text is derived from it.
Reported Thrombin at 100 μM % is given for each of the following compounds.
A number alone suffices; assume %.

* CC[C@H](C)[C@@H]1NC(=O)[C@@H]2CCCN2C(=O)[C@H]2CCCN2C(=O)[C@H](CCCNC(=N)N)NC(=O)[C@@H]2CSSC[C@H](NC1=O)C(=O)N[C@@H]([C@@H](C)O)C(=O)N[C@@H](CCCCN)C(=O)N[C@@H](CO)C(=O)N[C@@H](CC(=O)O)C(=O)N1CCC[C@H]1C(=O)N1CCC[C@H]1C(=O)N[C@@H](Cc1ccc(O)cc1)C(=O)N2 [Ex. 18] (HELM PEPTIDE1{I.C.T.K.S.D.P.P.Y.C.R.[dP].P}$PEPTIDE1,PEPTIDE1,2:R3-10:R3|PEPTIDE1,PEPTIDE1,1:R1-13:R2$$$V2.0) | 0

Challenge: Look up Thrombin at 100 μM % for this compound: CC[C@H](C)[C@@H]1NC(=O)[C@H](CO)NC(=O)[C@H](C)NC(=O)[C@H]([C@@H](C)O)NC(=O)[C@@H]2CSSC[C@H](NC(=O)[C@H](CCC(N)=O)NC(=O)[C@@H]3CCCN3C(=O)[C@@H]3CCCN3C1=O)C(=O)N[C@@H](Cc1ccccc1)C(=O)N1CCC[C@@H]1C(=O)N1CCC[C@H]1C(=O)N[C@@H](CCc1ccccc1)C(=O)N2 [Ex. 146] (HELM PEPTIDE1{[O=C([C@H](CCc1ccccc1)N[*:1])[*:2]].C.T.A.S.I.P.P.Q.C.F.[dP].P}$PEPTIDE1,PEPTIDE1,2:R3-10:R3|PEPTIDE1,PEPTIDE1,1:R1-13:R2$$$V2.0)
Response given: 11

Challenge: Can you share its Thrombin at 100 μM %? I mean this compound: CCCCCCCC[C@@H]1NC(=O)[C@@H]2CCCN2C(=O)[C@H]2CCCN2C(=O)[C@H](Cc2ccc(O)cc2)NC(=O)[C@H]([C@@H](C)O)NC(=O)[C@H](CCC(N)=O)NC(=O)[C@@H]2CCCN2C(=O)[C@@H]2CCCN2C(=O)[C@H]([C@@H](C)CC)NC(=O)[C@H](CO)NC(=O)[C@H](C)NC(=O)[C@H]([C@@H](C)O)NC(=O)[C@H](CCC(N)=O)NC1=O [Ex. 154] (HELM PEPTIDE1{[CCCCCCCC[C@H](N[*:1])C(=O)[*:2]].Q.T.A.S.I.P.P.Q.T.Y.[dP].P}$PEPTIDE1,PEPTIDE1,1:R1-13:R2$$$V2.0)
Response given: 7

Challenge: Which measured Thrombin at 100 μM % value corresponds to CCCC[C@@H]1NC(=O)[C@@H]2CCCN2C(=O)[C@@H]2CCCN2C(=O)[C@H](CC(=O)O)NC(=O)[C@H](CO)NC(=O)[C@H](CCCCN)NC(=O)[C@H]([C@@H](C)O)NC(=O)[C@@H]2CSSC[C@H](NC1=O)C(=O)N[C@@H](CCCNC(=N)N)C(=O)N1CCC[C@@H]1C(=O)N1CCC[C@H]1C(=O)N[C@@H]([C@@H](C)CC)C(=O)N2 [Ex. 19] (HELM PEPTIDE1{I.C.T.K.S.D.P.P.[Nle].C.R.[dP].P}$PEPTIDE1,PEPTIDE1,2:R3-10:R3|PEPTIDE1,PEPTIDE1,1:R1-13:R2$$$V2.0) ?
Response given: 11
